A collection of molecules and their measured pIC50
Biological target: Glutamate receptor ionotropic, kainate
Experiment: Binding affinity for Ionotropic glutamate receptor using [3H]- kainic acid
pIC50: −log10 of the molar value.

Sample records with pIC50:
Cc1ncc(CC(N)C(=O)O)n1O (stereo not given) : < 4.00
Cc1cnn(O)c1CC(N)C(=O)O (stereo not given) : < 4.00

Problem: Could you share which pIC50 value was measured for Cc1ncn(O)c1CC(N)C(=O)O (stereo not given) ?
Solution: < 4.00

Problem: Could you share which pIC50 value was measured for NC(Cc1cnnn1O)C(=O)O (stereo not given) ?
Solution: 4.33

Problem: Could you share which pIC50 value was measured for NC(Cc1nccn1O)C(=O)O (stereo not given) ?
Solution: < 4.00

Problem: Could you share which pIC50 value was measured for NC(Cc1conc1O)C(=O)O (stereo not given) ?
Solution: < 4.00

Problem: Could you share which pIC50 value was measured for Cc1nnn(O)c1CC(N)C(=O)O (stereo not given) ?
Solution: 4.05
